ASSAY_TEXT: Rat pharmacokinetic profiling (iv, sc, IN)
MEASUREMENT_CONDITIONS: male, Sprague Dawley, plasma, sc, 1 mg/kg
READOUT_LABEL: bioavailability (%)
Hi! Could you send only the number? It should be in %, unit omitted.

input: Bench note: what bioavailability did O=C1Nc2ncccc2C2(CCN(C(=O)N[C@H](Cc3cc(Br)c(O)c(Br)c3)C(=O)N[C@@H](CC3CCNCC3)C(=O)N3CCN(c4ccncc4)CC3)CC2)O1 [Example 14] show?
output: 96

----------
TESTED_ON: CGRP receptor (Homo sapiens (Human), UniProt O60894+Q16602)
Sequence (Q16602 23-461): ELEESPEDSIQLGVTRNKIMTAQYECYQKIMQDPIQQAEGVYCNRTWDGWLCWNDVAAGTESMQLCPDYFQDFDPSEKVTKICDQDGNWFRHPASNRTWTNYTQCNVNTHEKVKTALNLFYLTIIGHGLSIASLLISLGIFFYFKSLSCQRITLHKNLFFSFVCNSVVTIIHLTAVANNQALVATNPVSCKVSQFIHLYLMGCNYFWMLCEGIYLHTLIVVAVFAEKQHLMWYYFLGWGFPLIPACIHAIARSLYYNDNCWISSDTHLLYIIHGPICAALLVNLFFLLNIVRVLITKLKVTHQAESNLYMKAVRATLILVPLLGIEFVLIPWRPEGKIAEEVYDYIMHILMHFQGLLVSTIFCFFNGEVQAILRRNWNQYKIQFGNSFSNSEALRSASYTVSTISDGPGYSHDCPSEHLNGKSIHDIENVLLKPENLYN
Sequence (O60894 27-148): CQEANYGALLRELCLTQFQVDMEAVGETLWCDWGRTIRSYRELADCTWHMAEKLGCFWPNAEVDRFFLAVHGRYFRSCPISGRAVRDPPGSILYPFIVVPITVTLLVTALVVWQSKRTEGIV
ASSAY_TEXT: cAMP functional assay (HTRF) in SK-N-MC cells
Type: cell-based
MEASUREMENT_CONDITIONS: read-out: pkb average (converted)
Criterion: Kb strictly under 0.1 nM. Met: 1 (yes). Not met: 0 (no).

Cc1cc(C[C@@H](NC(=O)N2CCC(c3cc4ccccc4[nH]c3=O)CC2)C(=O)N[C@@H](CC2CCN(C(=O)OC(C)(C)C)CC2)C(=O)N2CCN(c3ccncc3)CC2)cc2cn[nH]c12	0 (no)
CCCN1CCC(C[C@H](NC(=O)[C@@H](Cc2cc(C)c3[nH]ncc3c2)NC(=O)N2CCC(c3cc4ccccc4[nH]c3=O)CC2)C(=O)N2CCN(c3ccncc3)CC2)CC1	1 (yes)
O=C(N[C@@H](CC1CCNCC1)C(=O)N1CCN(c2ccncc2)CC1)[C@@H](Cc1cc(Br)c(O)c(Br)c1)NC(=O)N1CCC(N2Cc3ccccc3NC2=O)CC1	1 (yes)

Turning to the following compound.
input: Report whether reported Kb is lower than 0.1 nM (strictly) for Cc1cc(C[C@@H](NC(=O)N2CCC(c3cc4ccccc4[nH]c3=O)CC2)C(=O)N[C@@H](CC2CCNCC2)C(=O)N2CCN(c3ccncc3)CC2)cc2cn[nH]c12
output: 0 (no)

All figures here come from patent US10300056B2.
